- assayed.target: Wild type FGFR2 (Homo sapiens (Human), UniProt P21802)
- Sequence (P21802 22-821): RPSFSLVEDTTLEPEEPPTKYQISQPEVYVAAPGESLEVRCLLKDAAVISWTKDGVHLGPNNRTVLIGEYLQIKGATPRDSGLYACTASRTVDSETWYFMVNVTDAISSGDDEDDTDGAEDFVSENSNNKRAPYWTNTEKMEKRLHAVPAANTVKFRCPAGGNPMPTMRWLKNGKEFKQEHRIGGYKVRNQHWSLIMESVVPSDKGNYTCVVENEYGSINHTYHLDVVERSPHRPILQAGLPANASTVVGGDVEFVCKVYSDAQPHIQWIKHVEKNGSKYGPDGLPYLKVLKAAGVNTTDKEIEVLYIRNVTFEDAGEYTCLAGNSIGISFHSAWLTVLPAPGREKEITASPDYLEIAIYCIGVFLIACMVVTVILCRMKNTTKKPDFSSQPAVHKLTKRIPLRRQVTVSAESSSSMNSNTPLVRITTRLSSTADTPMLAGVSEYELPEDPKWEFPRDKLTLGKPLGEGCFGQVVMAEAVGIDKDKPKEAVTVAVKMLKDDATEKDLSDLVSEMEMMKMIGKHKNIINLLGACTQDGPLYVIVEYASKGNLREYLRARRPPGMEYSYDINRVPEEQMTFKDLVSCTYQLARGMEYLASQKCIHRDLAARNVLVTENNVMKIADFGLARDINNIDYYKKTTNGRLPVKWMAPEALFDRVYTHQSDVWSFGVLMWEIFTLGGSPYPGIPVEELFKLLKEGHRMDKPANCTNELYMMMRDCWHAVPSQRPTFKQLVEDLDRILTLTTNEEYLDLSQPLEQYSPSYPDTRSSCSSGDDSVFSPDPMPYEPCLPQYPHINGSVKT
- measurement.protocol: FGFR2 kinase assay (fluorescence-based microfluidic mobility shift assay)
- Assay type: biochemical
- condition.summary: wild type FGFR2 0.06 nM, 100 μM ATP, 80 minutes at room temperature; class symbols
parameter.measured: IC50

Below, 4 molecules whose answers are already recorded.
{"molecule": "C=CC(=O)N1CC[C@H](n2nc(C#Cc3c(F)cc4c(ncn4C4CC4)c3F)c(C(N)=O)c2NC)C1 [Example 186]", "IC50": "≤ 0.1 µM"}
{"molecule": "C=CC(=O)N1C[C@@H](n2nc(C#Cc3cc4nc(C)n(CC)c4cc3C#N)c(C(N)=O)c2NC)C[C@@H]1COC [Example 24]", "IC50": "0.1 to 1 µM"}
{"molecule": "C=CC(=O)N1CC[C@H](n2nc(C#Cc3c(F)cc4c(ncn4CC)c3F)c(C(N)=O)c2NCCOC)C1 [Example 119]", "IC50": "≤ 0.1 µM"}
{"molecule": "C=CC(=O)N1C[C@@H](n2nc(C#Cc3cc4nc[nH]c4cc3Cl)c(C(N)=O)c2NC)C[C@@H]1COC [Example 92]", "IC50": "≤ 0.1 µM"}

Recorded IC50 for C=CC(=O)N1CC[C@H](n2nc(C#Cc3cc4ncn(CC)c4c(F)c3Cl)c(C(N)=O)c2NC)C1 [Example 141] , please?
≤ 0.1 µM

Can you handle C=CC(=O)N1C[C@@H](n2nc(C#Cc3cc4ncn(C5CC5)c4cc3F)c(C(N)=O)c2NC)C[C@H]1C [Example 164] next?
≤ 0.1 µM

Same lookup for C=CC(=O)N1C[C@@H](n2nc(C#Cc3cc4nc[nH]c4cc3F)c(C(N)=O)c2NC)C[C@@H]1COC(F)(F)F [Example 86] , please.
≤ 0.1 µM

----------
- assayed.target: Wild type FGFR2 (Homo sapiens (Human), UniProt P21802)
- measurement.protocol: FGFR2 kinase assay (fluorescence-based microfluidic mobility shift assay)
- Assay type: biochemical
- condition.summary: wild type FGFR2 0.06 nM, 100 μM ATP, 80 minutes at room temperature; class symbols
pIC50: −log10 of the molar value.
parameter.measured: pIC50

Example results:
{"smiles.repr": "CC#CC(=O)N1C[C@@H](n2nc(C#Cc3cc4ncn(C5CC5)c4cc3F)c(C(N)=O)c2NC)C[C@@H]1COC", "assayed.target": "Wild type FGFR2 (Homo sapiens (Human), UniProt P21802)", "parameter.measured": "pIC50", "result": "≥ 7.00"}
{"smiles.repr": "C=CC(=O)N1C[C@@H](n2nc(C#Cc3cc4nncc(C)c4cc3F)c(C(N)=O)c2NC)C[C@@H]1COC", "assayed.target": "Wild type FGFR2 (Homo sapiens (Human), UniProt P21802)", "parameter.measured": "pIC50", "result": "≥ 7.00"}
{"smiles.repr": "C=CC(=O)N1C[C@@H](n2nc(C#Cc3ccn4c(C)cnc4c3)c(C(N)=O)c2NC)C[C@@H]1COC", "assayed.target": "Wild type FGFR2 (Homo sapiens (Human), UniProt P21802)", "parameter.measured": "pIC50", "result": "≥ 7.00"}
{"smiles.repr": "C=CC(=O)N1C[C@@H](n2nc(C#Cc3cc4nc[nH]c4cc3F)c(C(N)=O)c2NC)C[C@@H]1COC", "assayed.target": "Wild type FGFR2 (Homo sapiens (Human), UniProt P21802)", "parameter.measured": "pIC50", "result": "≥ 7.00"}
{"smiles.repr": "C=CC(=O)N1C[C@@H](n2nc(C#Cc3ccc4nc(C)cnc4c3)c(C(N)=O)c2NC)C[C@@H]1COC", "assayed.target": "Wild type FGFR2 (Homo sapiens (Human), UniProt P21802)", "parameter.measured": "pIC50", "result": "≥ 7.00"}
{"smiles.repr": "C=CC(=O)N1C[C@@H](n2nc(C#Cc3c(F)cc4c(ncn4C4CC4)c3F)c(C(N)=O)c2NC)C[C@H]1CF", "assayed.target": "Wild type FGFR2 (Homo sapiens (Human), UniProt P21802)", "parameter.measured": "pIC50", "result": "≥ 7.00"}

Data request, read-out pIC50, for C=CC(=O)N1C[C@@H](n2nc(C#Cc3ccc4c(ncn4C)c3F)c(C(N)=O)c2NC)C[C@@H]1COC
≥ 7.00

Same read-out for C=CC(=O)N1C[C@@H](n2nc(C#Cc3cc4nc(C)n(C)c4cc3F)c(C(N)=O)c2NC)C[C@@H]1COC ?
≥ 7.00
